# Tested Target: MAGI2_5, Q86UL8
# Sequence (Q86UL8 915-1017): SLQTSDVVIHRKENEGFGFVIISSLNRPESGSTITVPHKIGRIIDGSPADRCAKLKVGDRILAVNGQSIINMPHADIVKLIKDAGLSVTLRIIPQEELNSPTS
# Protocol Description: holdup assay
# Parameters: key: below the threshold = too weak to quantify, mostly under pKd 3.1 to 4
# Experimental Context: plain residues with an end cap or a label only (N-terminal biotin on a linker: ado-ado)
Property: pKd
Give only the figure.

>>> df
                      binder  numeric_readout
0  TACCHSETVV [TGFA, P01135]             4.36

[Q] Requested field: pKd. Item: DDPSTAETVL [ABCA7, Q8IZY2]
[A] 4.27
